Consider the following compounds and their measured GI50 readings.
- Tested on: HCC 2998
- EXPERIMENT_SUMMARY: NCI tumour cell line growth inhibition, 48 h
Calls of active or inactive are those of the source. Rule as the data show it: active = GI50 up to about 1.1 µM and inactive = higher.
VALUE_TYPE: GI50

CC1CC(=O)Nc2cc(Cl)ccc2N1C(=O)C1CC1 (stereo not given) :: > 100 µM (inactive)
Cc1ccc2nc3c(=O)[nH]c(=O)nc-3n(C)c2c1C :: > 100 µM (inactive)
COC(=O)/C(=C/c1ccc(OC)cc1)C(C(=O)O)=C(C)C :: > 100 µM (inactive)
O=[N+]([O-])c1cccnc1NCC1(CO)CC(Cc2ccccc2)C1 (stereo not given) :: > 100 µM (inactive)
COc1ccc(C2C3C(=O)C=CC(=O)C3[C@@H]2C)cc1OC (stereo not given in full) :: > 100 µM (inactive)
COc1ccc(C(OCC2OC(n3cc(C)c(=O)[nH]c3=O)CC2n2cc(Cn3cc(F)c(=O)[nH]c3=O)nn2)(c2ccccc2)c2ccccc2)cc1 (stereo not given) :: 3.31 µM (inactive)
C=C(C)C(=O)OC1C[C@H](COC(C)=O)C2CC=C(CO)C2C2OC(=O)C(=C)[C@H]12 (stereo not given in full) :: 47.2 µM (inactive)
COc1c(Br)cc(Br)c(OC)c1-c1[nH]c(Br)c(Br)c1Br :: 6.76 µM (inactive)
COC(=O)c1ccc(NC(=O)c2cc(OC)c(OC)c(OC)c2)cc1 :: 1.99 µM (inactive)
O=C(O)CC(Cc1ccccc1Cl)C(=O)O (stereo not given) :: > 100 µM (inactive)

* * *

- Test system: HT-29
- EXPERIMENT_SUMMARY: NCI tumour cell line growth inhibition, 48 h
Calls of active or inactive are those of the source. Cut-off read from the data, not from the text of the source: active = GI50 up to about 1.1 µM and inactive = higher.
VALUE_TYPE: GI50

CN(C)CC(/C(Cc1ccccc1)=N\NC(=O)c1ccncc1)c1ccccc1 (stereo not given) :: 41 µM (inactive)
COC(=O)/C(=N/Nc1cccc(Cl)c1)C(C(=O)C(=O)Nc1cccc(Cl)c1C)c1nc2ccccc2nc1C (stereo not given) :: > 100 µM (inactive)
Fc1ccc(NC(=S)SCc2ccc3c(c2)OCO3)cc1F :: 20.2 µM (inactive)
CC(=O)[C@@]1(c2ccccc2)CC2(CCN(C)CC2)O[C@H]1C :: > 100 µM (inactive)
COC(=O)c1ccccc1/C=C1\Cc2ccc3c(c2C1=O)CCCC3 :: > 100 µM (inactive)
O=C(O)C1(Cc2ccc3c(c2)CCC3)Cc2cc3c(cc2C1)CCC3 :: > 100 µM (inactive)
CCOC(=O)C1S/C(=N\c2ccccc2)N=C1C (stereo not given) :: 30.3 µM (inactive)
CCOc1cc2c(cc1O)CC[C@@H]1[C@@H]2CC[C@]2(C)C(N)CC[C@@H]12 (stereo not given in full) :: 2.44 µM (inactive)
O=C(NC1=C(Cl)C(=O)c2ccccc2C1=O)c1ccccc1 :: 29.3 µM (inactive)
Nc1nc(Cl)cc(OCC2(CO)CCCCC2)n1 :: > 100 µM (inactive)
COc1c(Br)cc(Br)c(OC)c1-c1[nH]c(Br)c(Br)c1Br :: 4.17 µM (inactive)
C[n+]1c(-c2ccc(/C=N/Nc3ccnc(N/N=C/c4ccc(-c5cn6ccccc6[n+]5C)cc4)n3)cc2)cn2ccccc21 :: 24.7 µM (inactive)
N#Cc1nc(C2CCC(=O)O2)oc1N (stereo not given) :: > 100 µM (inactive)
CCOC(=O)c1csc(NC(=O)CCN2CCCCC2)n1 :: > 100 µM (inactive)
C=C(C)C(=O)OC1C[C@H](COC(C)=O)C2CC=C(CO)C2C2OC(=O)C(=C)[C@H]12 (stereo not given in full) :: 32.3 µM (inactive)
C=C[C@H]1CN2CCc3c([nH]c4c([C@@H]5CCCN5C)c(O)ccc34)[C@@H]2C[C@@H]1C[C@H]1c2[nH]c3ccccc3c2CCN1C :: 1.28 µM (inactive)
S=P1(N2CCCCC2)Oc2ccc3ccccc3c2-c2c(ccc3ccccc23)O1 :: > 76.2 µM (inactive)
Cc1ccccc1N1C(=O)C2C=CC(n3[nH]c(=O)n(Cc4ccccc4)c3=O)CC2C1=O (stereo not given) :: > 100 µM (inactive)
CCCCCCCC(=O)OCC1OC(n2cc(F)c(=O)[nH]c2=O)C(NC(=O)OCc2ccccc2)C(OC(=O)CCCCCCC)C1O (stereo not given) :: 29.8 µM (inactive)
C#CCN(Cc1ccc2nc(-c3ccccc3)c(Cl)nc2c1)c1cc(OC)c(OC)c(OC)c1 :: > 100 µM (inactive)
CC(C)=CCC[C@@H](C)C1=C(Nc2ccccc2F)C(=O)C(C)=C(O)C1=O :: 4.74 µM (inactive)
CC1=NC(=Cc2cccc(Cl)c2)C(=O)N1n1c(-c2ccccc2)nc2ccccc2c1=O :: 36 µM (inactive)
COC(=O)[C@]12CC[C@H]3CC[C@H]([C@H]31)[C@H](c1ccccc1)N2 :: 15.1 µM (inactive)
O=C(O)CC(Cc1ccccc1Cl)C(=O)O (stereo not given) :: > 100 µM (inactive)
c1ccc2c(c1)nnn2CNc1ccc(N2CCOCC2)cc1 :: > 100 µM (inactive)
COP(C)(=O)/C(Cc1ccccc1)=N\O (stereo not given) :: > 100 µM (inactive)
NC(=O)c1ccccc1NC(=O)C(=O)C(c1cnc2ccc([N+](=O)[O-])cc2n1)[N+](=O)[O-] (stereo not given) :: > 100 µM (inactive)
C(=C/c1nc2ccccc2o1)/c1ccc2c(c1)OCO2 :: 12.8 µM (inactive)
O=C(O)CNS(=O)(=O)c1ccc(NC(=O)c2ccc(F)cc2)cc1 :: > 100 µM (inactive)
O=C(N/N=C1\C(=O)Nc2ccc(Br)cc21)/C(O)=C/C(=O)c1ccc(Cl)cc1 :: > 100 µM (inactive)
C/C(=N\NS(=O)(=O)c1ccc(C)cc1)c1ccc[n+]([O-])n1 :: > 100 µM (inactive)
Cc1cc(-c2nc3ccccc3s2)ccc1NC(=O)[C@@H](N)CCCCN :: 7.16 µM (inactive)
Cc1nc2n(c1/C=C1/C(=O)Nc3cccc(Cl)c31)CCS2 :: > 100 µM (inactive)
Cc1c(/C=N/N=C/c2[nH]c(C(=O)OC(C)(C)C)c(C)c2C)[nH]c(C(=O)OC(C)(C)C)c1C :: > 100 µM (inactive)
COc1cc(/C=C(\NC(=O)c2ccccc2)c2nc3cncnc3[nH]2)cc(OC)c1OC :: > 100 µM (inactive)
